species on record: Oryctolagus cuniculus; test: Inhibition of iron-dependent peroxidation of rabbit vesicular membrane lipids (minimum test concentration that gave greater than 50% inhibition).; format: functional
MIC overview
recorded-endpoint: MIC (µM)

smiles-input: CC(C)Oc1cc(CN2CCN(CCO)CC2)cc(OC(C)C)c1O.Cl.Cl
recorded-endpoint: MIC
result-unit: µM
cmp: >
measured-result: 100
--
smiles-input: COc1cc(CN(C)C)cc(OC)c1O.Cl
recorded-endpoint: MIC
result-unit: µM
cmp: >
measured-result: 100
--
smiles-input: CCCCCCNCc1cc(OC)c(O)c(OC)c1.Cl
recorded-endpoint: MIC
result-unit: µM
cmp: =
measured-result: 100
--
smiles-input: CCCCCCCCNCc1cc(OC)c(O)c(OC)c1.Cl
recorded-endpoint: MIC
result-unit: µM
cmp: =
measured-result: 10
--
smiles-input: CC(C)Oc1cc(CN(C)C)cc(OC(C)C)c1O.Cl
recorded-endpoint: MIC
result-unit: µM
cmp: >
measured-result: 100
--
smiles-input: CCCCCOc1cc(CN(C)C)cc(OCCCCC)c1O.Cl
recorded-endpoint: MIC
result-unit: µM
cmp: =
measured-result: 2.3
--
smiles-input: CCCCOc1cc(CN(C)C)cc(OCCCC)c1O.Cl
recorded-endpoint: MIC
result-unit: µM
cmp: =
measured-result: 10
